pIC50: recorded values
Target: CDK2 (cyclin A) (Homo sapiens)
Construct: purchased Invitrogen Life Technologies (assay service)
Assay: Z'-LYTE kinase assay
Assay type: biochemical
pIC50: −log10 of the molar value.

Solved entries (count: 2):
[[record]]
structure_smiles_string = "CCOCCCn1c(=O)c(C#N)cc2cnc(Nc3ccc4c(c3)CCNC4)nc21"
measurement_kind = "pIC50"
value = "< 5.51"

[[record]]
structure_smiles_string = "CN1CCN(c2ccc(Nc3cc4c(cn3)cc(C#N)c(=O)n4C3CCCC3)cc2)CC1"
measurement_kind = "pIC50"
value = "< 5.44"


Now for a further molecule.
Data request: Find the recorded pIC50 belonging to `Cc1ccc(S(=O)(=O)N2CCC(Nc3ncc4cc(C#N)c(=O)n(C5CCCC5)c4n3)CC2)cc1` and report it.
Data returned: > 9.00
